Listing: IC50 of selected molecules
# Tested on: MCF-7
# assayComment: Resazurin reduction cell viability assay, MCF-7
# Assay type: cell-based, human
# experimentalSetup: 72 h of treatment; mean ± sd
Give the value, in units of µM, as a plain number.

Example results:
- molecule: "N.N.[Cl][Pt][Cl] [Cisplatin, (SP-4-2)-diamminedichloridoplatinum(II)]"
  propertyLabel: "IC50"
  recordedValue: 6.46
- molecule: "N.N.[OH][Pt]([OH])([Cl])[Cl]"
  propertyLabel: "IC50"
  recordedValue: 78.1

INPUT: For `CC(=O)[O][Pt]([OH])([Cl])[Cl].N.N` , what is its reported IC50?
OUTPUT: 8.86

###

# Test system: NT2-D1
# assayComment: Resazurin reduction cell viability assay, NT2-D1
# Type: cell-based, human
# experimentalSetup: 72 h of treatment; mean ± sd
propertyLabel: IC50 (µM)
Respond numerically; units are µM and should not be typed.

// known answers, use as guide
- molecule: "CC(=O)[O][Pt]([OH])([Cl])[Cl].N.N [Complex 2]"
  recordedValue: 0.21
- molecule: "CC(=O)[O][Pt]([NH2])([NH2])([Cl])([Cl])[O]C(C)=O [Complex 3]"
  recordedValue: 4.3

INPUT: Entry N.N.[OH][Pt]([OH])([Cl])[Cl] [Complex 1] has what IC50?
OUTPUT: 1.44

INPUT: Look up IC50 for this molecule: N.N.[Cl][Pt][Cl] [Cisplatin, (SP-4-2)-diamminedichloridoplatinum(II)]
OUTPUT: 0.1

###

# assayComment: Immobilized artificial membrane (IAM) chromatography, log KW
# Format: physicochemical
# experimentalSetup: IAM column; log k′ extrapolated to fully aqueous mobile phase
# Method: Retention times, tR, were measured on two columns: (i) a standard C18 column (Phenomenex Phenosphere-NEXT, 250 × 4.6 mm, 5 μm) and (ii) an IAM.PC.DD.2 column (Regis, 10 cm × […], 10 μm packing 300 Å pore size), prepared by covalently bonding cell-membrane-forming phospholipids to silica. […] In the case of IAM, the log KW values were calculated by an extrapolation method. […]
propertyLabel: Log KW
Could you respond with only the numeric value?

- compound: "N.N.[Cl][Pt][Cl] [Cisplatin, (SP-4-2)-diamminedichloridoplatinum(II)]"
  Log KW: "−0.64"

INPUT: If you can, please state the reported Log KW value of CC(=O)[O][Pt]([NH2])([NH2])([Cl])([Cl])[O]C(C)=O [Complex 3] .
OUTPUT: −0.83

INPUT: What value of Log KW has been reported for the following compound? N.N.[OH][Pt]([OH])([Cl])[Cl] [Complex 1]
OUTPUT: −1.06

INPUT: I'd like to know its Log KW. The compound in question is CC(=O)[O][Pt]([OH])([Cl])[Cl].N.N [Complex 2]
OUTPUT: −0.96

###

# Test system: A2780cisR
# assayComment: Resazurin reduction cell viability assay, A2780cisR
# Assay type: cell-based, human
# experimentalSetup: 72 h of treatment; cisplatin-resistant; mean ± sd
propertyLabel: pIC50
Just so you know, pIC50 here is -log10 of the concentration in molar units; reply with that number alone.

The examples below pair each entry with its known result.
- molecule: "N.N.[OH][Pt]([OH])([Cl])[Cl] [Complex 1]"
  targetOrTestSystem: "A2780cisR"
  propertyLabel: "pIC50"
  recordedValue: 4.28
- molecule: "CC(=O)[O][Pt]([OH])([Cl])[Cl].N.N [Complex 2]"
  targetOrTestSystem: "A2780cisR"
  propertyLabel: "pIC50"
  recordedValue: 5.99

Here is another molecule to look at.
INPUT: # query: pIC50 of entry N.N.[Cl][Pt][Cl] [Cisplatin, (SP-4-2)-diamminedichloridoplatinum(II)]
OUTPUT: 5.21

Cited source for all entries: paper PMC9822769
